Source of measurements: patent US10273236B2

subject-of-test: purified human Factor XIa (Homo sapiens, UniProt P03951)
Sequence (P03951 388-625 limits assumed): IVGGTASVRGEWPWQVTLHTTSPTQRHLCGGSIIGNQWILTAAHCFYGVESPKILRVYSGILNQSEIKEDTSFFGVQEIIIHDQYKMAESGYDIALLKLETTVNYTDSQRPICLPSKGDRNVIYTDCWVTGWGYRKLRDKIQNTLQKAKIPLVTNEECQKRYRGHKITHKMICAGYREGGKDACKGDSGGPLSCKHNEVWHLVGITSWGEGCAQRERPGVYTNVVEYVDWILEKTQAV
Sequence (P03951 19-387 partner limits assumed): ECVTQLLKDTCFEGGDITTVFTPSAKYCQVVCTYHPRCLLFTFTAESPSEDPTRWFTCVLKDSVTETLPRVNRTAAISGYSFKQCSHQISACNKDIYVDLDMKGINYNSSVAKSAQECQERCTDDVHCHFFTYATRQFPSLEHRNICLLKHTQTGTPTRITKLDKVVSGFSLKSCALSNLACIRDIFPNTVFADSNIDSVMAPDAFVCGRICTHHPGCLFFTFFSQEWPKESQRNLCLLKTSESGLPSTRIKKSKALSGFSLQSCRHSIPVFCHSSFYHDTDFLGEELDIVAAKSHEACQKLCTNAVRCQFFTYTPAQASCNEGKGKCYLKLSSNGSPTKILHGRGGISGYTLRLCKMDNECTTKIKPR
Where a name gives a salt, the structure may show the parent alone.
measurement-kind: Ki (nM)

Reference set (4 entries):
compound	subject-of-test	Ki, nM
C[C@@H]1CCC[C@H](N2CCC(c3cc(Cl)ccc3-n3ccnn3)=CC2=O)c2cc(ccn2)-c2nn(CC(=O)O)cc2NC1=O	purified human Factor XIa (Homo sapiens, UniProt P03951)	14
C[C@@H]1CCC[C@H](N2CCC(c3cc(Cl)ccc3-n3cc(C(F)(F)F)nn3)=CC2=O)c2cc(ccn2)-c2c(cnn2C)NC1=O	purified human Factor XIa (Homo sapiens, UniProt P03951)	0.1
C[C@@H]1CCC[C@H](N2CCC(c3cc(Cl)ccc3-n3ccnn3)=CC2=O)c2cc(ccn2)-c2c(cnn2C)NC1=O [Example 1, trifluoroacetate]	purified human Factor XIa (Homo sapiens, UniProt P03951)	1.8
C[C@@H]1CCC[C@H](N2CCC(c3c(C(F)(F)F)ccc(Cl)c3F)=CC2=O)c2cc(ccn2)-c2c(cnn2C(F)F)NC1=O	purified human Factor XIa (Homo sapiens, UniProt P03951)	1

a = C[C@@H]1CCC[C@H](N2CCC(c3c(C(F)(F)F)ccc(Cl)c3F)=CC2=O)c2cc(ccn2)-c2nn(-c3cncnc3)cc2NC1=O
b = C[C@@H]1CCC[C@H](N2CCC(c3c(Cl)ccc(Cl)c3F)=CC2=O)c2cc(ccn2)-c2c(cnn2C(F)F)NC1=O
Which item exceeds the other in Ki, a or b ? Please identify the chosen entry by its label. a
(a: 5.4 nM, b: 1.9 nM)

----------
subject-of-test: purified human Factor XIa (Homo sapiens, UniProt P03951)
Counter-ions that a name gives are not always drawn.
measurement-kind: Ki (nM)

Study these solved cases before continuing.
compound	Ki, nM
C[C@@H]1CCC[C@H](N2CCC(c3cc(Cl)ccc3-n3cc(Cl)nn3)=CC2=O)c2cc(ccn2)-c2c(cnn2C(F)F)NC1=O	0.1
[2H]C([2H])([2H])n1ncc2c1-c1ccnc(c1)[C@@H](n1ncc(-c3cc(Cl)ccc3-n3cc(C(F)(F)F)nn3)cc1=O)CCC[C@@H](C)C(=O)N2 [Example 63, trifluoroacetate]	0.52
C[C@@H]1CCC[C@H](n2ncc(-c3cc(Cl)ccc3-n3cc(C(F)(F)F)nn3)cc2=O)c2cc(ccn2)-c2c(cnn2C)NC1=O [Example 61, trifluoroacetate]	0.51
C[C@@H]1CCC[C@H](n2ccc(-c3cc(Cl)ccc3C#N)cc2=O)c2cc(ccn2)-c2c(cnn2C(F)F)NC1=O	3.2
C[C@@H]1CCC[C@H](N2CCC(c3cc(Cl)ccc3-n3cc(Cl)nn3)=CC2=O)c2cc(ccn2)-c2[nH]ncc2NC1=O	2.4

P = [2H]C([2H])([2H])n1ncc2c1-c1ccnc(c1)[C@@H](N1CCC(c3c(OC(F)F)ccc(Cl)c3F)=CC1=O)CCC[C@@H](C)C(=O)N2
Q = C[C@@H]1CCC[C@H](N2CCC(c3c(C(C)(F)F)ccc(Cl)c3F)=CC2=O)c2cc(ccn2)-c2c(cnn2C)NC1=O
Identify the item whose Ki is the smaller number: P or Q // respond with label for picked entry P
(P: 1 nM, Q: 5.7 nM)

----------
subject-of-test: purified human plasma kallikrein (Homo sapiens)
Construct: Plasma prekallikrein is a zymogen of a trypsin-like serine protease
Sequence (P03952 391-638 limits assumed): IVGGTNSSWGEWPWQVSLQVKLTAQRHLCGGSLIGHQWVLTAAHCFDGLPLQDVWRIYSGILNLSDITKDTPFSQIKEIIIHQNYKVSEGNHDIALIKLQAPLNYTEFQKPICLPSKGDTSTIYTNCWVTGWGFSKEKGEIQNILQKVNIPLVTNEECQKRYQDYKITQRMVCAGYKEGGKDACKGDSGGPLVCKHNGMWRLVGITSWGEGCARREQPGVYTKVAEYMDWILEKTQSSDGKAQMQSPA
Sequence (P03952 20-390 partner limits assumed): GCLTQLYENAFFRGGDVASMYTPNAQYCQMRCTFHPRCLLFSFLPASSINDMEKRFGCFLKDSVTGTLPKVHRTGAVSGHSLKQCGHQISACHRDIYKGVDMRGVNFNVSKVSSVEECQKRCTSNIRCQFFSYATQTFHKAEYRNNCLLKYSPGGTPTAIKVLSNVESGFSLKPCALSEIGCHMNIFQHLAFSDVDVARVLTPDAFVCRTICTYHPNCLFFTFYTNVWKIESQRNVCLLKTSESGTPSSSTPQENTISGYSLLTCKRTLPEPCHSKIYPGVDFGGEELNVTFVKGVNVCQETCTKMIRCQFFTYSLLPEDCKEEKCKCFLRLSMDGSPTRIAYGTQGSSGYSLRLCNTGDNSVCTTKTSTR
assay-details: Plasma kallikrein inhibition assay, chromogenic substrate S-2302 (Ki)
pKi: −log10 of the molar value. Counter-ions that a name gives are not always drawn.
measurement-kind: pKi

These solved cases illustrate the format of a correct answer.
compound	quantitative-result
C[C@@H]1CCC[C@H](N2CCC(c3c(F)ccc(Cl)c3F)=CC2=O)c2cc(ccn2)-c2c(cnn2C(F)F)NC1=O	7.30
C[C@@H]1CCC[C@H](N2CCC(c3cc(Cl)ccc3-n3cc(Cl)nn3)=CC2=O)c2cc(ccn2)-c2c(cnn2CC(F)F)NC1=O	7.66
C[C@@H]1CCC[C@H](N2CCC(c3cc(Cl)ccc3-n3ccnn3)=CC2=O)c2cc(ccn2)-c2c(cnn2CCO)NC1=O (stereo in doubt)	6.85
C[C@@H]1CCC[C@H](N2CCC(c3c(C(F)(F)F)ccc(Cl)c3F)=CC2=O)c2cc(ccn2)-c2c(cnn2C2CC2)NC1=O	7.66

a = C[C@@H]1CCC[C@H](N2CCC(c3cc(Cl)ccc3-n3cc(Cl)nn3)=CC2=O)c2cccc(c2)-c2c(cnn2C)NC1=O
b = C[C@H]1C(=O)Nc2cnn(C)c2-c2ccnc(c2)[C@@H](n2ccc(-c3c(C(F)(F)F)ccc(Cl)c3F)cc2=O)CCC1F (stereo partly drawn) [Example 28, trifluoroacetate]
c = CCn1ncc2c1-c1ccnc(c1)[C@@H](N1CCC(c3c(F)ccc(Cl)c3F)=CC1=O)CCC[C@@H](C)C(=O)N2 [Example 10]
d = CC(C)[C@@H]1CCC[C@H](N2CCC(c3cc(Cl)ccc3-n3cc(Cl)nn3)=CC2=O)c2cc(ccn2)-c2c(cnn2C)NC1=O
e = C[C@@H]1CCC[C@H](N2CCC(c3cc(Cl)ccc3C#N)=CC2=O)c2cc(ccn2)-c2c(cnn2C(F)F)NC1=O
Rank by pKi (largest to smallest). Dear reader, please state the labels in the requested order. a, e, d, b, c
(a: 8.26, e: 8.00, d: 7.80, b: 7.60, c: 7.30)

a = C[C@@H]1CCC[C@H](N2CCC(c3c(OC(F)F)ccc(Cl)c3F)=CC2=O)c2cc(ccn2)-c2c(cnn2C(F)F)NC1=O
b = C[C@@H]1CCC[C@H](N2CCC(c3cc(Cl)ccc3-n3cc(Cl)nn3)=CC2=O)c2cc(ccn2)-c2c(cnn2CC(=O)O)NC1=O
c = C[C@H]1C(=O)Nc2cnn(C)c2-c2cc(F)cc(c2)[C@@H](N2CCC(c3cc(Cl)ccc3-n3cc(Cl)nn3)=CC2=O)CCC1F (stereo partly drawn)
d = C[C@@H]1CCC[C@H](N2CCC(c3cc(Cl)ccc3-c3cnn(C(F)F)c3)=CC2=O)c2cc(ccn2)-c2c(cnn2C)NC1=O
e = [2H]C([2H])([2H])n1ncc2c1-c1cccc(c1)[C@@H](N1CCC(c3cc(Cl)ccc3-n3cc(Cl)nn3)=CC1=O)CCC[C@@H](C)C(=O)N2
Sort ascending by pKi. Write the labels out in the order the request specifies. d, a, b, c, e
(d: 6.92, a: 7.40, b: 7.77, c: 8.10, e: 8.30)

A = C[C@H]1C(=O)Nc2cnn(C)c2-c2ccnc(c2)[C@@H](N2CCC(c3c(C(F)(F)F)ccc(Cl)c3F)=CC2=O)CCC1F (stereo partly drawn)
B = C[C@H]1C(=O)Nc2cnn(C)c2-c2ccnc(c2)[C@@H](N2CCC(c3cc(Cl)ccc3-n3cc(Cl)nn3)=CC2=O)CCC1F (single isomer, unassigned; isomer a) [Example 13]
Of A and B , whose reported pKi is the larger number? Label of pick, please. B

----------
subject-of-test: purified human plasma kallikrein (Homo sapiens)
Construct: Plasma prekallikrein is a zymogen of a trypsin-like serine protease
assay-details: Plasma kallikrein inhibition assay, chromogenic substrate S-2302 (Ki)
Method: The effectiveness of compounds of the present invention as inhibitors of the coagulation Factors XIa, VIIa, IXa, Xa, XIIa, plasma kallikrein or thrombin, can be determined using a relevant purified serine protease, respectively, and an appropriate synthetic substrate. The rate of hydrolysis of the chromogenic or fluorogenic substrate by the relevant serine protease was measured both in the absence and presence of compounds of the present invention. […]
measurement-kind: Ki (nM)

compound	measurement-kind	uom	quantitative-result
C[C@@H]1CCC[C@H](N2CCC(c3cc(Cl)ccc3-n3cc(Cl)nn3)=CC2=O)c2cccc(n2)-c2c(cnn2C)NC1=O [Example 43]	Ki	nM	110

A = C[C@@H]1CCC[C@H](N2CCC(c3c(C#N)ccc(Cl)c3F)=CC2=O)c2cc(ccn2)-c2c(cnn2C)NC1=O [Example 39]
B = C[C@@H]1CCC[C@H](N2CCC(c3cc(Cl)ccc3-n3cc(Cl)nn3)=CC2=O)c2cc(ccn2)-c2c(cnn2CCOC(C)(C)C)NC1=O [Example 34]
So which one has the bigger Ki here, A or B ? Give the label under which the chosen entry appears. A

----------
subject-of-test: purified human plasma kallikrein (Homo sapiens)
Construct: Plasma prekallikrein is a zymogen of a trypsin-like serine protease
assay-details: Plasma kallikrein inhibition assay, chromogenic substrate S-2302 (Ki)
Counter-ions that a name gives are not always drawn.
measurement-kind: Ki (nM)

compound	uom	Ki
[2H]C([2H])([2H])n1ncc2c1-c1ccnc(c1)[C@@H](N1CCC(c3c(C(F)(F)F)ccc(Cl)c3F)=CC1=O)CCC[C@@H](C)C(=O)N2	nM	30
C[C@@H]1CCC[C@H](N2CCC(c3cc(Cl)ccc3-n3ccnn3)=CC2=O)c2cc(ccn2)-c2c(cnn2C)NC1=O [Example 1, trifluoroacetate]	nM	24
C[C@@H]1CCC[C@H](N2CCC(c3c(C(F)F)ccc(Cl)c3F)=CC2=O)c2cc(ccn2)-c2c(cnn2C)NC1=O	nM	5

I = C[C@@H]1CCC[C@H](N2CCC(c3cc(Cl)ccc3C#N)=CC2=O)c2cc(ccn2)-c2c(cnn2C)NC1=O
II = C[C@@H]1CCC[C@H](N2CCC(c3cc(Cl)ccc3-n3cc(Cl)nn3)=CC2=O)c2cc(ccn2)-c2c(cnn2C(F)F)NC1=O
Returns the identifier with the smallest measured Ki among I and II . I would appreciate it if you answered with the label of your choice. II
